# FFA rate of turnover values compiled below
Assay: In vivo kinetics of FA incorporation and turnover in brain phospholipids (intravenous radiotracer infusion, kinetic model)
Parameters: species or system rat
Conditions: PtdIns; MEP
Respond numerically; units are %/day and should not be typed.

Worked set:
[[record]]
molecule = "CC/C=C\\C/C=C\\C/C=C\\C/C=C\\C/C=C\\CCCC(=O)O"
reported_property = "FFA rate of turnover"
reported_result = 17

[[record]]
molecule = "CCCCCCCCCCCCCCCC(=O)O [Palmitate, [1-14C]palmitate]"
reported_property = "FFA rate of turnover"
reported_result = 311

[[record]]
molecule = "CC/C=C\\C/C=C\\C/C=C\\C/C=C\\C/C=C\\C/C=C\\CCC(=O)O"
reported_property = "FFA rate of turnover"
reported_result = 308


Return reported FFA rate of turnover; argument: CC/C=C\C/C=C\C/C=C\C/C=C\C/C=C\CCCCCC(=O)O
260

###

# FFA rate of turnover values compiled below
Assay: In vivo kinetics of FA incorporation and turnover in brain phospholipids (intravenous radiotracer infusion, kinetic model)
Design: species or system rat
Settings: ChoGpl; MEP
Respond numerically; units are %/day and should not be typed.

[[record]]
compound = "CCCCCCCCCCCCCCCC(=O)O [Palmitate, [1-14C]palmitate]"
reported_result = 53


Return reported FFA rate of turnover; argument: CC/C=C\C/C=C\C/C=C\C/C=C\C/C=C\CCCCCC(=O)O [EPA→n-3 DPA]
178

Return reported FFA rate of turnover; argument: CC/C=C\C/C=C\C/C=C\C/C=C\C/C=C\CCCC(=O)O [EPA, eicosapentaenoic acid]
28

Return reported FFA rate of turnover; argument: CC/C=C\C/C=C\C/C=C\C/C=C\C/C=C\C/C=C\CCC(=O)O [DHA, docosahexaenoic acid]
90

Return reported FFA rate of turnover; argument: CC/C=C\C/C=C\C/C=C\C/C=C\C/C=C\C/C=C\CCC(=O)O [EPA→DHA]
0.070

###

Test: In vivo kinetics of FA incorporation and turnover in brain phospholipids (intravenous radiotracer infusion, kinetic model)
Parameters: species or system rat
Conditions: PtdSer; Vehicle
# JFA net incorporation rate from brain acyl-CoA values compiled below
Respond numerically; units are nmol/g/day and should not be typed.

[[record]]
molecule = "CC/C=C\\C/C=C\\C/C=C\\C/C=C\\C/C=C\\CCCCCC(=O)O [EPA→n-3 DPA]"
reported_result = 1.8

[[record]]
molecule = "CC/C=C\\C/C=C\\C/C=C\\C/C=C\\C/C=C\\CCCC(=O)O [EPA, eicosapentaenoic acid]"
reported_result = 1.4


Now look at this one.
Return reported JFA net incorporation rate from brain acyl-CoA; argument: CC/C=C\C/C=C\C/C=C\C/C=C\C/C=C\C/C=C\CCC(=O)O [DHA, docosahexaenoic acid]
237

###

Assay: In vivo kinetics of FA incorporation and turnover in brain phospholipids (intravenous radiotracer infusion, kinetic model)
Design: species or system rat
Conditions: ChoGpl; Vehicle
REPORTED PROPERTY: JFA net incorporation rate from brain acyl-CoA (nmol/g/day)
Respond numerically; units are nmol/g/day and should not be typed.

[[record]]
compound = "CC/C=C\\C/C=C\\C/C=C\\C/C=C\\C/C=C\\CCCCCC(=O)O"
reported_result = 6.5

[[record]]
compound = "CC/C=C\\C/C=C\\C/C=C\\C/C=C\\C/C=C\\C/C=C\\CCC(=O)O [EPA→DHA]"
reported_result = 3.8


Now look at this one.
Return reported JFA net incorporation rate from brain acyl-CoA; argument: CC/C=C\C/C=C\C/C=C\C/C=C\C/C=C\CCCC(=O)O
23

###

Test: In vivo kinetics of FA incorporation and turnover in brain phospholipids (intravenous radiotracer infusion, kinetic model)
Parameters: species or system rat
Conditions: EtnGpl; Vehicle
Protocol: Twenty-four hours postsurgery, a second catheter (iv catheter 24 gauge/0.75 inch, Angiocath™; Becton Dickinson) was implanted into the tail vein where rats received either vehicle or 10 mg/kg of MEP. […] The radiotracers were infused for 5 min via the tail vein catheter at a rate of 0.223(1 + e^−19.2t) ml/min (t is infusion time in minutes) ([37]) which achieves a steady-state plasma radioactivity within 1 min ([18], [38]). […]
# Jin net incorporation rate from plasma unesterified FA values compiled below
Respond numerically; units are nmol/g/day and should not be typed.

Worked set:
[[record]]
molecule = "CC/C=C\\C/C=C\\C/C=C\\C/C=C\\C/C=C\\CCCC(=O)O"
unit = "nmol/g/day"
reported_result = 0.78

[[record]]
molecule = "CC/C=C\\C/C=C\\C/C=C\\C/C=C\\C/C=C\\C/C=C\\CCC(=O)O [DHA, docosahexaenoic acid]"
unit = "nmol/g/day"
reported_result = 7.9

[[record]]
molecule = "CC/C=C\\C/C=C\\C/C=C\\C/C=C\\C/C=C\\C/C=C\\CCC(=O)O [EPA→DHA]"
unit = "nmol/g/day"
reported_result = 0.92


Return reported Jin net incorporation rate from plasma unesterified FA; argument: CC/C=C\C/C=C\C/C=C\C/C=C\C/C=C\CCCCCC(=O)O
1.5

###

Test: Identification of radiolabeled FAs in brain phospholipids by HPLC and LSC after 14C-EPA infusion
Format: in vivo, rat
Settings: brain total phospholipids, vehicle-treated rats
Description: Twenty-four hours postsurgery, a second catheter (iv catheter 24 gauge/0.75 inch, Angiocath™; Becton Dickinson) was implanted into the tail vein where rats received either vehicle or 10 mg/kg of MEP. Ten minutes post injection of vehicle or MEP, the tail vein catheter was connected to a syringe containing radiolabeled ^14C-palmitate (n = 8), ^14C-DHA (n = 6), or ^14C-EPA (n = 7) attached to a computer-controlled variable speed pump (PHD 22/2000; Harvard Apparatus, Holliston, MA). […]
# percent of total radiolabeled FAs values compiled below
Respond numerically; units are % and should not be typed.

Worked set:
[[record]]
molecule = "CC/C=C\\C/C=C\\C/C=C\\C/C=C\\C/C=C\\CCCCCC(=O)O"
unit = "%"
reported_result = 24

[[record]]
molecule = "CC/C=C\\C/C=C\\C/C=C\\C/C=C\\C/C=C\\CCCC(=O)O"
unit = "%"
reported_result = 62


Return reported percent of total radiolabeled FAs; argument: CC/C=C\C/C=C\C/C=C\C/C=C\C/C=C\C/C=C\CCC(=O)O
10

Return reported percent of total radiolabeled FAs; argument: CCCCCCCCCCCCCCCC(=O)O [Palmitate, [1-14C]palmitate]
4

###

Test: In vivo kinetics of FA incorporation and turnover in brain phospholipids (intravenous radiotracer infusion, kinetic model)
Parameters: species or system rat
Conditions: PtdSer; Vehicle
REPORTED PROPERTY: FFA rate of turnover (%/day)
Respond numerically; units are %/day and should not be typed.

Worked set:
[[record]]
molecule = "CC/C=C\\C/C=C\\C/C=C\\C/C=C\\C/C=C\\C/C=C\\CCC(=O)O [DHA, docosahexaenoic acid]"
reported_property = "FFA rate of turnover"
reported_result = 9.2

[[record]]
molecule = "CCCCCCCCCCCCCCCC(=O)O [Palmitate, [1-14C]palmitate]"
reported_property = "FFA rate of turnover"
reported_result = 356


Return reported FFA rate of turnover; argument: CC/C=C\C/C=C\C/C=C\C/C=C\C/C=C\CCCC(=O)O [EPA, eicosapentaenoic acid]
3.1

Return reported FFA rate of turnover; argument: CC/C=C\C/C=C\C/C=C\C/C=C\C/C=C\CCCCCC(=O)O [EPA→n-3 DPA]
31
